# Test system: human β2GPI-dependent antiphospholipid antibody
# Experimental Protocol: Micropanning of mutant domain 1 phage, patient antibodies
# Assay type: binding
# Measurement Context: Table 7B, antibody 6632
Item-by-item account of Micropan score
Answer with the value's number alone.

molecule 3F8: phage clone, domain 1 mutant T50A (protein) GRTCPKPDDLPFSTVVPLKTFYEPGEEITYSCKPGYVSRGGMRKFICPLAGLWPINTLKCTPRV , Micropan score observed: 2

molecule 2B2: phage clone, domain 1 mutant V37E (protein) GRTCPKPDDLPFSTVVPLKTFYEPGEEITYSCKPGYESRGGMRKFICPLTGLWPINTLKCTPRV , Micropan score observed: 4

molecule SH1: phage clone, domain 1 mutant K33E (protein) GRTCPKPDDLPFSTVVPLKTFYEPGEEITYSCEPGYVSRGGMRKFICPLTGLWPINTLKCTPRV , Micropan score observed: 4

molecule 3B4: phage clone, domain 1 mutant S38T (protein) GRTCPKPDDLPFSTVVPLKTFYEPGEEITYSCKPGYVTRGGMRKFICPLTGLWPINTLKCTPRV , Micropan score observed: 2

molecule 4G1: phage clone, domain 1 mutant S31P (protein) GRTCPKPDDLPFSTVVPLKTFYEPGEEITYPCKPGYVSRGGMRKFICPLTGLWPINTLKCTPRV , Micropan score observed: 2

molecule SC3: phage clone, domain 1 mutant F45S (protein) GRTCPKPDDLPFSTVVPLKTFYEPGEEITYSCKPGYVSRGGMRKSICPLTGLWPINTLKCTPRV , Micropan score observed: 4

molecule 4B12: phage clone, domain 1 mutant T50P (protein) GRTCPKPDDLPFSTVVPLKTFYEPGEEITYSCKPGYVSRGGMRKFICPLPGLWPINTLKCTPRV , Micropan score observed: 1
